Target: EZH2 Mutant Y641N (Homo sapiens (Human), UniProt Q15910, Y641N)
Sequence (Q15910 whole entry Y641N, looked up): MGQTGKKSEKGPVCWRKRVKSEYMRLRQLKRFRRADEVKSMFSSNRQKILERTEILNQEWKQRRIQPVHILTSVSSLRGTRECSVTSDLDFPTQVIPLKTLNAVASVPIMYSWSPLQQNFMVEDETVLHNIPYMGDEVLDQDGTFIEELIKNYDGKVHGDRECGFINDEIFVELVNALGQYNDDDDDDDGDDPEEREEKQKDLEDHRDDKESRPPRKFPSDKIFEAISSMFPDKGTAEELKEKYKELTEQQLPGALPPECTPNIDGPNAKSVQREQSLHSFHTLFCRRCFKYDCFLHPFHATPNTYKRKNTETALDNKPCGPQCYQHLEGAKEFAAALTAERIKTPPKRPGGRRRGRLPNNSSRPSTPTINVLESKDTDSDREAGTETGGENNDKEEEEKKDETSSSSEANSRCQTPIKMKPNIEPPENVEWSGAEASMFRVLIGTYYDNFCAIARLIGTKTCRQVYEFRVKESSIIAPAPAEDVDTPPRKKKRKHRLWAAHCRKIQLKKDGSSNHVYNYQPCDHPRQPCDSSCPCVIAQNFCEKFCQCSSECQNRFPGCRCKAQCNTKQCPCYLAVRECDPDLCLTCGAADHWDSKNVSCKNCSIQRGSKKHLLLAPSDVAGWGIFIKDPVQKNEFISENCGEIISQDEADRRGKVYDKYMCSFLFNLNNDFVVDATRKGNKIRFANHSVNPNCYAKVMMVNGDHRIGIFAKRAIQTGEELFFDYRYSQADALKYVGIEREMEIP
Sequence (O75530 whole entry partner, looked up): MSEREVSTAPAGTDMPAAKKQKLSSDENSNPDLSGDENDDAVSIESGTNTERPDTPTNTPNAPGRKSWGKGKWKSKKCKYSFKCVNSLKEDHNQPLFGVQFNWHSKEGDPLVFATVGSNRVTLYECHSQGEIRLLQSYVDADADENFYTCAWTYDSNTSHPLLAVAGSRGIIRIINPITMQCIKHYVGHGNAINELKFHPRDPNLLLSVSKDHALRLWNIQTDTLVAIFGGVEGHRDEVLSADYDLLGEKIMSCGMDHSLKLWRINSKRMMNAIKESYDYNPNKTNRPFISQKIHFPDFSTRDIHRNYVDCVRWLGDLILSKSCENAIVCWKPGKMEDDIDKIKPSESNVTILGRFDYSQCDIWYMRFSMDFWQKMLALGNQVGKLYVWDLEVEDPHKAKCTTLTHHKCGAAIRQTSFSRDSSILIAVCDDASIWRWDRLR
Sequence (Q15022 whole entry partner, looked up): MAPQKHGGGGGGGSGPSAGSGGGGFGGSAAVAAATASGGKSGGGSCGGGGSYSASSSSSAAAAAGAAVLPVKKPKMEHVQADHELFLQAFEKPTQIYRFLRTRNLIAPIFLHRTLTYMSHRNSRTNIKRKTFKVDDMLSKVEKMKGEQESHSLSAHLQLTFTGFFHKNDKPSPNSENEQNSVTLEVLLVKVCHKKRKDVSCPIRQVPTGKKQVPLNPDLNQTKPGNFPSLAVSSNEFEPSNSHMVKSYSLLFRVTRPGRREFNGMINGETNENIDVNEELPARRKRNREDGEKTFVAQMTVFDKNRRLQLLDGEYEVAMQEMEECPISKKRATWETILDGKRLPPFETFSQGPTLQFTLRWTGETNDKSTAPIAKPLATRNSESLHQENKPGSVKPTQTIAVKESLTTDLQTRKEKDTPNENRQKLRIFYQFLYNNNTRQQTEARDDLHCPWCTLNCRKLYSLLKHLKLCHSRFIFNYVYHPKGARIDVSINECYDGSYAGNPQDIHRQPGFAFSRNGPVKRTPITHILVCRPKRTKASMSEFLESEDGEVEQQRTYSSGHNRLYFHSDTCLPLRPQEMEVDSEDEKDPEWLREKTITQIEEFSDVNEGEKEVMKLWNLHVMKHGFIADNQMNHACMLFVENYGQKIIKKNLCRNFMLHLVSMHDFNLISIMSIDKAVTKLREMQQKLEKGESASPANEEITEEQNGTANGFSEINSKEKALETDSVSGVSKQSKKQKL
Sequence (Q09028 whole entry partner, looked up): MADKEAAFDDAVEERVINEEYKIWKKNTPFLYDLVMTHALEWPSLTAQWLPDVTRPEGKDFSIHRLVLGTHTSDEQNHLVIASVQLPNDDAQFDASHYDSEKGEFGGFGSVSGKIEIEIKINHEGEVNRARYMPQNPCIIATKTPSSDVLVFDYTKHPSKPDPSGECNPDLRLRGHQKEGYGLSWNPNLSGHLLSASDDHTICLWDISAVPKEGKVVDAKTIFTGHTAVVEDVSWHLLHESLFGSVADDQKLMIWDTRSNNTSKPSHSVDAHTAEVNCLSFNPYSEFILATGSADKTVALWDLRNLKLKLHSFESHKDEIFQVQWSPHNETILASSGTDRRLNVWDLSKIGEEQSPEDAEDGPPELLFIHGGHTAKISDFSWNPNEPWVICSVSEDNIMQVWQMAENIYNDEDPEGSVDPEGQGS
Assay: EZH2 Mutant Y641N nucleosome assay
Assay type: biochemical
Conditions: PRC2 4-protein complex 6 nM, 1.5 μM SAM, HeLa oligonucleosomes; read-out: EZH2 Mutant Y641N Nucleosome assay IC50
Experimental: The genes for EZH2, EED, SUZ12, and RBBP4 proteins were cloned into pBacPAK9 vectors (Clontech). RBBP4 was FLAG tagged on the N-terminal end. The baculovirus expressions of these proteins were used to co-infect SF9 insect cells. […] D. Data analysis • 1. IC50 values were determined by fitting the data to a 4-parameter IC50 equation using proprietary curve fitting software. • 2. […]
experimental.readout: pIC50
Units for pIC50: none; it is -log10 of a concentration expressed in mol/L.

INPUT: Need pIC50, item COC(c1cc(Cl)c2c(c1Cl)C(=O)N(Cc1c(C)cc(C)[nH]c1=O)CC2)C1CN(C(=O)CO)C1 (single isomer, unassigned) [Example 129]
OUTPUT: 8.10

INPUT: Need pIC50, item Cc1cc(C)c(CN2CCc3c(Cl)cc(C(CO)O[C@@H]4CCOC4)c(Cl)c3C2=O)c(=O)[nH]1 (single isomer, unassigned) [Example 103]
OUTPUT: 6.49

INPUT: Which pIC50 is reported for this molecule? Cc1cc(C)c(CN2CCc3c(Cl)cc(C(CO)O[C@@H]4CCOC4)c(Cl)c3C2=O)c(=O)[nH]1 (single isomer, unassigned) [Example 104]
OUTPUT: 5.11

INPUT: # input molecule: Cc1cc(C)c(CN2CCc3c(Cl)cc(C(CO)N4CC[C@H](F)C4)c(Cl)c3C2=O)c(=O)[nH]1 (stereo partly shown) [Example 58] ; wanted: its pIC50
OUTPUT: 6.29

INPUT: # get_value(readout='pIC50', item= Cc1cc(C)c(CN2CCc3c(Cl)cc(C(CO)N4CCC(F)(F)C4)c(Cl)c3C2=O)c(=O)[nH]1 (single isomer, unassigned) [Example 67] )
OUTPUT: 4.71

INPUT: Entry Cc1cc(C)c(CN2CCc3c(Cl)cc(C(C)CCO)c(Cl)c3C2=O)c(=O)[nH]1 (single isomer, unassigned) [Example 40] has what pIC50?
OUTPUT: 7.62

INPUT: Quick one: pIC50 of COC(c1cc(Cl)c2c(c1Cl)C(=O)N(Cc1c(C)cc(C)[nH]c1=O)CC2)C1(O)CCOCC1 (single isomer, unassigned) [Example 52] ?
OUTPUT: 5.98

INPUT: Look at this molecule and give its reported pIC50. Cc1cc(C)c(CN2CCc3c(Cl)cc(C(C)C)c(Cl)c3C2=O)c(=O)[nH]1
OUTPUT: 7.40

INPUT: Give the measured pIC50 of COC(c1cc(Cl)c2c(c1Cl)C(=O)N(Cc1c(C)cc(C)[nH]c1=O)CC2)C1CN(C)C1 (single isomer, unassigned) [Example 175] .
OUTPUT: 6.00

INPUT: Any idea what its pIC50 is? The molecule is COC(c1cc(Cl)c2c(c1Cl)C(=O)N(Cc1c(C)cc(C)[nH]c1=O)CC2)C1CN(S(C)(=O)=O)C1 (single isomer, unassigned) [Example 176]
OUTPUT: 8.30

INPUT: Give the measured pIC50 of COC(c1cc(Cl)c2c(c1Cl)C(=O)N(Cc1c(C)cc(C)[nH]c1=O)CC2)C1CCN(C(=O)CC#N)CC1 (single isomer, unassigned) [Example 71] .
OUTPUT: 8.52

INPUT: I would be grateful if you could share the reported pIC50 for Cc1cc(C)c(CN2CCc3c(C)cc(C(CO)C4CCOCC4)c(Cl)c3C2=O)c(=O)[nH]1 (single isomer, unassigned) [Example 101] .
OUTPUT: 8.15

INPUT: Which pIC50 value belongs to Cc1cc(C)c(CN2CCc3c(Cl)cc([C@H](CO)[C@H]4CCOC4)c(Cl)c3C2=O)c(=O)[nH]1 ?
OUTPUT: 8.52

INPUT: Data request, read-out pIC50, for Cc1cc(C)c(CN2CCc3c(Cl)cc(C(CO)N4CC[C@H](F)C4)c(Cl)c3C2=O)c(=O)[nH]1 (single isomer, unassigned) [Example 62]
OUTPUT: 6.58

INPUT: Need pIC50, item COc1cc(C)[nH]c(=O)c1CN1CCc2c(Cl)cc(C(C)C3CCN(C(=O)CO)CC3)c(Cl)c2C1=O (single isomer, unassigned) [Example 201]
OUTPUT: 7.43

INPUT: Look up pIC50 for this molecule: COc1cc(C)[nH]c(=O)c1CN1CCc2c(Cl)cc(C(OC)C3CCN(C(C)=O)CC3)c(Cl)c2C1=O (single isomer, unassigned) [Example 123]
OUTPUT: 8.30

INPUT: So what does the record say about pIC50 for COC(c1cc(C)c2c(c1Cl)C(=O)N(Cc1c(C)cc(C)[nH]c1=O)CC2)C1CN(C2COC2)C1 (single isomer, unassigned) [Example 181] ?
OUTPUT: 7.39

INPUT: Param item = Cc1cc(C)c(CN2CCc3c(Cl)cc(C(C)CN(C)CCO)c(Cl)c3C2=O)c(=O)[nH]1 (racemic) ; retrieve measured pIC50.
OUTPUT: 6.96

INPUT: Quick one: pIC50 of Cc1cc(C)c(CN2CCc3c(Cl)cc(C(C)N4CCOCC4)c(Cl)c3C2=O)c(=O)[nH]1 (racemic) [Example 89] ?
OUTPUT: 7.06

INPUT: GET /values?readout=pIC50&item= COC(c1cc(Cl)c2c(c1Cl)C(=O)N(Cc1c(C)cc(C)[nH]c1=O)CC2)C1CCN(C(=O)CO)C1 (stereo not shown)
OUTPUT: 8.30

INPUT: Find the recorded pIC50 belonging to COc1cc(C)[nH]c(=O)c1CN1CCc2c(Cl)cc([C@H](CO)[C@H]3CCCO3)c(Cl)c2C1=O and report it.
OUTPUT: 7.89

INPUT: # lookup: pIC50 of COc1cc(C)[nH]c(=O)c1CN1CCc2c(C)cc([C@H](OC)[C@@H]3CCOC3)c(Cl)c2C1=O
OUTPUT: 8.40

INPUT: Consider the molecule COc1cc(C)[nH]c(=O)c1CN1CCc2c(C)cc(C(OC)C3COC3)c(Cl)c2C1=O (single isomer, unassigned) [Example 145] and give its measured pIC50.
OUTPUT: 6.57

INPUT: Looking for the measured pIC50 of COc1cc(C)[nH]c(=O)c1CN1CCc2c(C)cc(C(C)C3COC3)c(Cl)c2C1=O (single isomer, unassigned) [Example 198] , can you help?
OUTPUT: 9.00

INPUT: Quick one: pIC50 for Cc1cc(C)c(CN2CCc3c(Cl)cc(C(C)C4CN(C)C4)c(Cl)c3C2=O)c(=O)[nH]1 (single isomer, unassigned) [Example 188] ?
OUTPUT: 6.82
